The reported numbers originate from ChEMBL document CHEMBL1158255.

Test system: Raji
Experiment: Cell cycle arrest in human Raji cells assessed as accumulation in S phase at 1 ug/mL
Assay type: functional
reportedMetric: Activity

molecule="COC1C[C@H](O[C@H]2[C@@H](OC)C[C@H](O[C@H]3[C@@H](OC)C[C@H](O[C@H]4CC[C@@]5(C)C(=CC[C@]6(O)[C@@H]5C[C@@H](OC(C)=O)[C@@]5(C)[C@]6(O)CC[C@@]5(O)[C@H](C)O)C4)O[C@@H]3C)O[C@@H]2C)O[C@H](C)[C@H]1O[C@@H]1O[C@H](C)[C@@H](O[C@@H]2O[C@H](CO)[C@@H](O)[C@H](O)[C@H]2O)[C@@H](OC)[C@H]1O (single isomer, unassigned)" tgt=Raji result=28%
molecule=CO[C@@H]1[C@@H](O)[C@H](O[C@H]2[C@@H](OC)C[C@H](O[C@H]3[C@@H](OC)C[C@H](O[C@H]4[C@@H](OC)C[C@H](O[C@H]5CC[C@@]6(C)C(=CC[C@]7(O)[C@@H]6C[C@@H](OC(=O)c6ccccc6)[C@@]6(C)[C@]7(O)CC[C@@]6(O)[C@H](C)OC(=O)/C=C/c6ccccc6)C5)O[C@@H]4C)O[C@@H]3C)O[C@@H]2C)O[C@H](C)[C@H]1O[C@@H]1O[C@H](CO)[C@@H](O)[C@H](O)[C@H]1O tgt=Raji result=5%

Consider now this further molecule.
(Q) Form field: Activity recorded for COC1C[C@H](O[C@H]2[C@@H](OC)C[C@H](O[C@H]3[C@@H](OC)C[C@H](O[C@H]4CC[C@@]5(C)C(=CC[C@]6(O)[C@@H]5C[C@@H](OC(=O)/C=C/c5ccccc5)[C@@]5(C)[C@]6(O)CC[C@@]5(O)[C@H](C)O)C4)O[C@@H]3C)O[C@@H]2C)O[C@H](C)[C@H]1O[C@@H]1O[C@H](C)[C@@H](O[C@@H]2O[C@H](CO)[C@@H](O)[C@H](O)[C@H]2O)[C@@H](OC)[C@H]1O (single isomer, unassigned) with Raji (enter value)
(A) 10%

###

Tested on: Raji
Assay: Antitumor activity against human Raji cells assessed as DNA synthesis at 1 ug/mL by [3H]thymidine incorporation assay relative to control
Assay type: functional
reportedMetric: Activity (%)
Numeric answer only, unit % assumed.

(Q) # returns recorded Activity (system: Raji) for COC1C[C@H](O[C@H]2[C@@H](OC)C[C@H](O[C@H]3[C@@H](OC)C[C@H](O[C@H]4CC[C@@]5(C)C(=CC[C@]6(O)[C@@H]5C[C@@H](OC(C)=O)[C@@]5(C)[C@]6(O)CC[C@@]5(O)C(C)=O)C4)O[C@@H]3C)O[C@@H]2C)O[C@H](C)[C@H]1O[C@@H]1O[C@H](C)[C@@H](O[C@@H]2O[C@H](CO)[C@@H](O)[C@H](O)[C@H]2O)[C@@H](OC)[C@H]1O (single isomer, unassigned)
(A) 69

###

System: Raji
Experiment: Antitumor activity against human Raji cells assessed as DNA synthesis at 1 ug/mL by [3H]thymidine incorporation assay relative to control
Assay type: functional
reportedMetric: Activity (%)
Kindly answer with a numeric value in %, unit omitted.

Examples from the recorded data:
compound="COC1C[C@H](O[C@H]2[C@@H](OC)C[C@H](O[C@H]3[C@@H](OC)C[C@H](O[C@H]4CC[C@@]5(C)C(=CC[C@]6(O)[C@@H]5C[C@@H](OC(=O)/C=C/c5ccccc5)[C@@]5(C)[C@]6(O)CC[C@@]5(O)[C@H](C)O)C4)O[C@@H]3C)O[C@@H]2C)O[C@H](C)[C@H]1O[C@@H]1O[C@H](C)[C@@H](O[C@@H]2O[C@H](CO)[C@@H](O)[C@H](O)[C@H]2O)[C@@H](OC)[C@H]1O (single isomer, unassigned)" tgt=Raji readoutnumber=16
compound="COC1C[C@H](O[C@@H]2[C@@H](C)O[C@@H](O[C@H]3[C@@H](OC)C[C@H](O[C@H]4CC[C@@]5(C)C(=CC[C@]6(O)[C@@H]5C[C@@H](OC(=O)/C=C/c5ccccc5)[C@@]5(C)[C@]6(O)CC[C@@]5(O)[C@H](C)OC(=O)c5ccccc5)C4)O[C@@H]3C)C[C@H]2OC)O[C@H](C)[C@H]1O[C@@H]1O[C@H](C)[C@@H](O[C@@H]2O[C@H](CO)[C@@H](O)[C@H](O)[C@H]2O)[C@@H](OC)[C@H]1O (single isomer, unassigned)" tgt=Raji readoutnumber=15

(Q) Can you share its Activity? I mean this compound: COC1C[C@H](O[C@H]2[C@@H](OC)C[C@H](O[C@H]3[C@@H](OC)C[C@H](O[C@H]4CC[C@@]5(C)C(=CC[C@]6(O)[C@@H]5C[C@@H](OC(C)=O)[C@@]5(C)[C@]6(O)CC[C@@]5(O)[C@H](C)O)C4)O[C@@H]3C)O[C@@H]2C)O[C@H](C)[C@H]1O[C@@H]1O[C@H](C)[C@@H](O[C@@H]2O[C@H](CO)[C@@H](O)[C@H](O)[C@H]2O)[C@@H](OC)[C@H]1O (single isomer, unassigned)
(A) 69

(Q) Please report the recorded Activity for CO[C@H]1[C@@H](O)[C@H](O[C@H]2[C@@H](OC)C[C@H](O[C@H]3[C@@H](OC)C[C@H](O[C@H]4[C@@H](OC)C[C@H](O[C@H]5CC[C@@]6(C)C(=CC[C@]7(O)[C@@H]6C[C@@H](OC(=O)c6ccccc6)[C@@]6(C)[C@]7(O)CC[C@@]6(O)[C@H](C)OC(=O)/C=C/c6ccccc6)C5)O[C@@H]4C)O[C@@H]3C)O[C@@H]2C)O[C@H](C)[C@H]1O[C@@H]1O[C@H](CO)[C@@H](O)[C@H](O)[C@H]1O .
(A) 14

###

Tested on: Raji
Assay: Antitumor activity against human Raji cells assessed as DNA synthesis at 1 ug/mL by [3H]thymidine incorporation assay relative to control
Format: functional
Activity values for the compounds below.
Number only, in %; omit the unit.

compound="COC1C[C@H](O[C@@H]2[C@@H](C)O[C@@H](O[C@H]3[C@@H](OC)C[C@H](O[C@H]4CC[C@@]5(C)C(=CC[C@]6(O)[C@@H]5C[C@@H](OC(C)=O)[C@@]5(C)[C@]6(O)CC[C@@]5(O)[C@H](C)O)C4)O[C@@H]3C)C[C@H]2OC)O[C@H](C)[C@H]1O[C@@H]1O[C@H](C)[C@@H](O[C@@H]2O[C@H](CO)[C@@H](O)[C@H](O)[C@H]2O)[C@@H](OC)[C@H]1O (single isomer, unassigned)" reportedmetric=Activity readoutnumber=65

// below: Activity requested for another compound
(Q) # lookup: Activity of CO[C@H]1[C@@H](O)[C@H](O[C@H]2[C@@H](OC)C[C@H](O[C@H]3[C@@H](OC)C[C@H](O[C@H]4[C@@H](OC)C[C@H](O[C@H]5CC[C@@]6(C)C(=CC[C@]7(O)[C@@H]6C[C@@H](OC(=O)/C=C/c6ccccc6)[C@@]6(C)[C@]7(O)CC[C@@]6(O)C(C)=O)C5)O[C@@H]4C)O[C@@H]3C)O[C@@H]2C)O[C@H](C)[C@H]1O[C@@H]1O[C@H](CO)[C@@H](O)[C@H](O)[C@H]1O
(A) 14

###

Test system: Raji
Assay: Cell cycle arrest in human Raji cells assessed as accumulation in S phase at 1 ug/mL
Type: functional
reportedMetric: Activity (%)
Respond numerically; units are % and should not be typed.

(Q) Quick check: Activity of CO[C@H]1[C@@H](O)[C@H](O[C@H]2[C@@H](OC)C[C@H](O[C@H]3[C@@H](OC)C[C@H](O[C@H]4[C@@H](OC)C[C@H](O[C@H]5CC[C@@]6(C)C(=CC[C@]7(O)[C@@H]6C[C@@H](OC(=O)c6ccccc6)[C@@]6(C)[C@]7(O)CC[C@@]6(O)[C@H](C)OC(=O)/C=C/c6ccccc6)C5)O[C@@H]4C)O[C@@H]3C)O[C@@H]2C)O[C@H](C)[C@H]1O[C@@H]1O[C@H](CO)[C@@H](O)[C@H](O)[C@H]1O ?
(A) 4

###

Tested on: Raji
Assay: Cell cycle arrest in human Raji cells assessed as accumulation in S phase at 1 ug/mL
Format: functional
reportedMetric: Activity (%)
The figure you give is taken to be in %; do not add the unit.

Some entries whose results are on file:
compound="COC1C[C@H](O[C@@H]2[C@@H](C)O[C@@H](O[C@H]3[C@@H](OC)C[C@H](O[C@H]4CC[C@@]5(C)C(=CC[C@]6(O)[C@@H]5C[C@@H](OC(C)=O)[C@@]5(C)[C@]6(O)CC[C@@]5(O)[C@H](C)O)C4)O[C@@H]3C)C[C@H]2OC)O[C@H](C)[C@H]1O[C@@H]1O[C@H](C)[C@@H](O[C@@H]2O[C@H](CO)[C@@H](O)[C@H](O)[C@H]2O)[C@@H](OC)[C@H]1O (single isomer, unassigned)" unitstring=% readoutnumber=18
compound="COC1C[C@H](O[C@H]2[C@@H](OC)C[C@H](O[C@H]3[C@@H](OC)C[C@H](O[C@H]4CC[C@@]5(C)C(=CC[C@]6(O)[C@@H]5C[C@@H](OC(C)=O)[C@@]5(C)[C@]6(O)CC[C@@]5(O)C(C)=O)C4)O[C@@H]3C)O[C@@H]2C)O[C@H](C)[C@H]1O[C@@H]1O[C@H](C)[C@@H](O[C@@H]2O[C@H](CO)[C@@H](O)[C@H](O)[C@H]2O)[C@@H](OC)[C@H]1O (single isomer, unassigned)" unitstring=% readoutnumber=26

(Q) Recorded Activity of COC1C[C@H](O[C@@H]2[C@@H](C)O[C@@H](O[C@H]3[C@@H](OC)C[C@H](O[C@H]4CC[C@@]5(C)C(=CC[C@]6(O)[C@@H]5C[C@@H](OC(=O)/C=C/c5ccccc5)[C@@]5(C)[C@]6(O)CC[C@@]5(O)[C@H](C)OC(=O)c5ccccc5)C4)O[C@@H]3C)C[C@H]2OC)O[C@H](C)[C@H]1O[C@@H]1O[C@H](C)[C@@H](O[C@@H]2O[C@H](CO)[C@@H](O)[C@H](O)[C@H]2O)[C@@H](OC)[C@H]1O (single isomer, unassigned) , please.
(A) 3

(Q) What value of Activity has been reported for the following compound? CO[C@H]1[C@@H](O)[C@H](O[C@H]2[C@@H](OC)C[C@H](O[C@H]3[C@@H](OC)C[C@H](O[C@H]4[C@@H](OC)C[C@H](O[C@H]5CC[C@@]6(C)C(=CC[C@]7(O)[C@@H]6C[C@@H](OC(=O)/C=C/c6ccccc6)[C@@]6(C)[C@]7(O)CC[C@@]6(O)C(C)=O)C5)O[C@@H]4C)O[C@@H]3C)O[C@@H]2C)O[C@H](C)[C@H]1O[C@@H]1O[C@H](CO)[C@@H](O)[C@H](O)[C@H]1O
(A) 4
